The values you see were collected from patent US12590062B2.

Readings of log10 of IC50 for the listed compounds
# measured-target: PD-1/PD-L1 (Homo sapiens)
# protocol: PD-1/PD-L1 biochemical protein-protein interaction assay (ALPHA)
# reported-conditions: 0.3 nM His tagged PD-L1, 2.5 nM biotinylated Fc-PD-1, 60 minutes at 25° C., read-out: IC50 PD-L1-PD-1 Alpha IC50-mono PD-L1-fcP-D1
For clarity, the numbers are log10 values of IC50 expressed in nM.

Exam item: Give log10 of IC50; test system PD-1/PD-L1 (Homo sapiens); compound Cc1c(COc2cc(OCc3cncc(C#N)c3)c(CNC[C@@H](O)CC(=O)O)cc2Cl)cccc1-c1cccc(-c2ccc(CNCc3cncc(C#N)c3)cc2)c1C
Marked response: 0.06

Exam item: Give log10 of IC50; test system PD-1/PD-L1 (Homo sapiens); compound Cc1c(COc2cc(OCc3cncc(C#N)c3)c(CNC[C@@H](O)CC(=O)O)cc2Cl)cccc1-c1cccc(-c2ccc(CNC[C@@H](O)CC(=O)O)c(OC(F)F)c2)c1C
Marked response: -1.19

Exam item: Give log10 of IC50; test system PD-1/PD-L1 (Homo sapiens); compound COc1nc(O[C@H]2CCc3c(-c4cccc(-c5ccc(C6=NCCN6)c(OC)n5)c4Cl)cccc32)c(Br)cc1CNC[C@@H]1CCC(=O)N1
Marked response: -0.45

Exam item: Give log10 of IC50; test system PD-1/PD-L1 (Homo sapiens); compound COc1nc(O[C@H]2CCc3c(-c4cccc(-c5cnc(CN6CC7(C6)CN(C(C)=O)C7)c(OC)n5)c4Cl)cccc32)c(Cl)cc1CN1CC[C@@H](C(=O)O)C1
Marked response: -1.19

Exam item: Give log10 of IC50; test system PD-1/PD-L1 (Homo sapiens); compound Cc1c(COc2cc(OCc3cncc(C#N)c3)c(CNC[C@@H](O)CC(=O)O)cc2Cl)cccc1-c1cccc(-c2ccc(CNC[C@@H](O)CC(=O)O)c(OCC#N)c2)c1C
Marked response: -1.10

Exam item: Give log10 of IC50; test system PD-1/PD-L1 (Homo sapiens); compound COc1cc(-c2cccc(-c3cccc4c3CC[C@@H]4Oc3nc(OC)c(CN[C@@](C)(CO)C(=O)O)cc3Br)c2Cl)ccc1C1=NCCN1
Marked response: -1.19

Exam item: Give log10 of IC50; test system PD-1/PD-L1 (Homo sapiens); compound COc1nc(O[C@H]2CCc3c(-c4cccc(-c5ccc(CNC[C@@H]6CCC(=O)N6)cc5)c4Cl)cccc32)c(Cl)cc1CNC[C@@H](O)CC(=O)O
Marked response: -1.13

Exam item: Give log10 of IC50; test system PD-1/PD-L1 (Homo sapiens); compound CNC(=O)COc1nc(OCc2cccc(-c3cccc(COc4nc(OCC(=O)NC)c(CNC[C@@H](O)CC(=O)O)cc4Br)c3C)c2C)c(Br)cc1CNC[C@@H](O)CC(=O)O
Marked response: -0.52

----------
# measured-target: PD-1/PD-L1 interaction (Homo sapiens, UniProt Q9NZQ7)
# Construct: expressed in transfected cells; host or cells: CHO cells (aAPC-PD-L1) co-cultured with Jurkat cells overexpressing PD-1 and an NFAT-luciferase reporter
# protocol: PD-1/PD-L1 NFAT reporter co-culture assay
# Assay type: cell-based
# reported-conditions: Jurkat PD-1 NFAT-luciferase cells co-cultured with aAPC-PD-L1 CHO cells, 6 hrs at 37° C.; read-out: EC50 NFAT Luciferase
pEC50: −log10 of the molar value.
Kindly note that classification relies on pEC50 with these boundaries: low class = under 6, middle class = from 6 up to 7, high class = 7 and over

Use the examples below as a reference point.
[
  {
    "compound": "COc1cc(-c2cccc(-c3cccc(COc4cc(OCc5cncc(C#N)c5)c(CN[C@@](C)(CO)C(=O)O)cc4Cl)c3C)c2C)ccc1C1=NCCN1",
    "class-label": "high class"
  },
  {
    "compound": "COc1nc(-c2cccc(-c3cccc(-c4ccc5c(ccn5CCN(C)C)c4)c3Cl)c2Cl)ccc1CNC[C@@H]1CCC(=O)N1",
    "class-label": "low class"
  },
  {
    "compound": "COc1nc(OCc2cccc(-c3cccc(COc4nc(OC)c(CN[C@H](C)[C@@H](O)CC(=O)O)cc4Cl)c3C)c2C)c(Cl)cc1CN[C@H](C)[C@@H](O)CC(=O)O",
    "class-label": "middle class"
  },
  {
    "compound": "COc1nc(OCc2cccc(-c3cccc(COc4nc(OC)c(CNCc5c[nH]nn5)cc4Cl)c3C)c2C)c(Cl)cc1CNCc1c[nH]nn1",
    "class-label": "low class"
  },
  {
    "compound": "COc1ccc(-c2cccc(-c3cccc(COc4cc(OCc5cncc(C#N)c5)c(CN[C@@](C)(CO)C(=O)O)cc4Cl)c3C)c2C)cc1CN",
    "class-label": "middle class"
  }
]

Exam item: Class label required: COc1nc(OCc2cccc(-c3cccc(COc4nc(OC)c(C5COCCN5)cc4Br)c3C)c2C)c(Br)cc1C1COCCN1 (stereo not drawn)
Marked response: low class

Exam item: Class label required: Cc1c(COc2cc(OCc3cncc(C#N)c3)c(CNC[C@@H](O)CC(=O)O)cc2Cl)cccc1-c1cccc(-c2ccc(OCCNC[C@@H](O)CC(=O)O)cc2)c1Cl
Marked response: middle class

Exam item: Class label required: COc1nc(O[C@H]2CCc3c(-c4cccc(-c5cnc(CN6CC(C)(O)C6)c(OC)n5)c4Cl)cccc32)c(Cl)cc1CN1CC[C@H](C(=O)O)C1
Marked response: high class

Exam item: Class label required: COc1nc(-c2cccc(-c3cccc(N4Cc5cc(CN6CC7(C6)CN(C(C)=O)C7)ccc5C4=O)c3Cl)c2Cl)ccc1CN1CC2(C1)CN(C(C)=O)C2
Marked response: low class

----------
# measured-target: PD-L1 (Homo sapiens, UniProt Q9NZQ7)
# Construct: determine if they can specifically dimerize the extracellular domains of PD-L1
# protocol: PD-L1/PD-L1 dimerization biochemical protein-protein interaction assay (ALPHA)
# Assay type: binding
# reported-conditions: compound-induced PD-L1 dimerization, head prints '1 nM' (0.5 nM His-tagged PD-L1 and 0.5 nM FLAG-tagged PD-L1), read-out: AC50 PDL1 Dimer Alpha 1 nM
AC50 less than 40 nM is met; AC50 greater than or equal to 40 nM is not met.

[
  {
    "structure": "Cc1c(COc2cc(OCc3cncc(C#N)c3)c(CN3CC[C@@H](O)C3)cc2Cl)cccc1-c1cccc(-c2ccc(CNC[C@@H](O)CC(=O)O)cc2)c1C",
    "class-label": "not met"
  },
  {
    "structure": "COc1nc(-c2cccc(-c3cccc(COc4nc(OCc5cncc(C#N)c5)c(CNCCO)cc4Br)c3Cl)c2Cl)ccc1C1=NCCN1",
    "class-label": "met"
  },
  {
    "structure": "COc1nc(-c2cccc(-c3cccc4c3CC[C@@H]4Oc3nc(OCc4cc(C#N)cc(C#N)c4)c(CNC[C@@H](O)CC(=O)O)cc3Cl)c2Cl)ccc1CNC[C@@H]1CCC(=O)N1",
    "class-label": "not met"
  },
  {
    "structure": "COc1nc(O[C@H]2CCc3c(-c4cccc(-c5ccc(CN6CC7(C6)CN(C(C)=O)C7)cc5)c4Cl)cccc32)c(Cl)cc1CN1CC[C@@H](C(=O)O)C1",
    "class-label": "not met"
  },
  {
    "structure": "COc1nc(-c2cccc(-c3cccc4c3CC[C@@H]4Oc3nc(OCc4cncc(C#N)c4)c(CN[C@@](C)(CO)C(=O)O)cc3Cl)c2Cl)ccc1CN1CC2(CCC(=O)N2)C1",
    "class-label": "not met"
  }
]

Turning to the following compound.
Exam item: Find out if reported AC50 for COc1nc(O[C@H]2CCc3c(-c4cccc(-c5ccc(CNC[C@@H]6CCC(=O)N6)c(Cl)c5)c4Cl)cccc32)c(Br)cc1CNC[C@@H]1CCC(=O)N1 is less than 40 nM
Marked response: not met

----------
Readings of AC50 for the listed compounds
# measured-target: PD-L1 (Homo sapiens)
# Construct: determine if they can specifically dimerize the extracellular domains of PD-L1
# protocol: PD-L1/PD-L1 dimerization biochemical protein-protein interaction assay (ALPHA)
# Type: binding
# reported-conditions: compound-induced PD-L1 dimerization, head prints '1 nM' (0.5 nM His-tagged PD-L1 and 0.5 nM FLAG-tagged PD-L1), read-out: AC50 PDL1 Dimer Alpha 1 nM
Just the number please, in µM, no unit attached.

Exam item: Provide measured AC50 value, entry: COc1nc(O[C@H]2CCc3c(-c4cccc(-c5cnc(CN[C@@H]6CCC[C@@H]6O)c(OC)n5)c4Cl)cccc32)c(Cl)cc1CN[C@@H]1CCC[C@@H]1O
Marked response: 0.039

Exam item: Provide measured AC50 value, entry: Cc1c(COc2cc(OCc3cncc(C#N)c3)c(CN[C@@](C)(CO)C(=O)O)cc2Cl)cccc1-c1cccc(-c2ccc(CNCCc3c[nH]cn3)cc2)c1C
Marked response: 0.224
